B1: EHEE_rd2_1257 (parent)
chain: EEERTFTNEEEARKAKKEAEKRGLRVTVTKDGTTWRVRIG

variants of: B1; assay: folding stability dG (cDNA display proteolysis); higher = more stable; conditions: PBS, room temperature
Kindly state folding stability dG for each of the entries shown.
Numbers only, in kcal/mol.

mutation-code	recorded-measurement
V37Y	-0.22
A15D	0.155
A19E	0.159
R22Y	1.69
V26L	0.171

Return reported folding stability dG values for all items listed beneath this line.
1. E10S
2. K17Q
3. E20D

[1.89, 2.36, 0.837]

Return reported folding stability dG values for all items listed beneath this line.
1. T34L
2. R25Y

2.76
2.07

Return reported folding stability dG values for all items listed beneath this line.
1. K17H
2. R4G
3. R4F

1: 2.24; 2: 1.14; 3: 2.97
